# test_summary: compounds altering RPL19A-GFP fluorescence, TOR branch – cell-based, S. cerevisiae, multiplex flow cytometry, MLPCN, primary screen (AID 2025);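 further: median channel GFP fluorescence of the barcoded RPL19A-GFP strain; ratio of sample median GFP to plate DMSO average so 100% = DMSO; lower means less RPL19A-GFP as with rapamycin TOR inhibition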
# test_context: S. cerevisiae RPL19A-GFP strain, 3 h, at 10 µM, active compounds read low
Hit rate of the full screen: of about 330,000 compounds, about 980 (0.3%) were called active. This excerpt belongs to a sample that is enriched for actives.
Record form. Attribute: percent response vs DMSO. Fill in for each entry.

Answered cases to consult:
Cc1cccc(C(=O)NC(=S)N(C)C2CCCCC2)c1
96.9% (inactive)
Cc1ccc(SCc2cc(=O)[nH]c(N3CCCCC3)n2)cc1
97.5% (inactive)

# per-item lookup of percent response vs DMSO; items listed below
1. COCC(C)OC(=O)c1c(N)n(CCCN2CCOCC2)c2nc3ccccc3nc12 (stereo not drawn)
2. CCCNC(=O)C(=O)Nc1cc2c3c(c1)CCC(=O)N3CCC2
3. Cc1cc(NC(=O)CSc2nccn2-c2ccc([N+](=O)[O-])cc2)no1
4. COc1cc(NC(=O)c2ccc(-c3csc(C)n3)cc2)c(OC)cc1Cl
5. Cc1cc(N2CCOCC2)nc2ccc(NC(=S)N3CCN(Cc4ccccc4)CC3)cc12
6. CCC(=O)N1c2ccc(S(=O)(=O)CCC(=O)N3CCN(c4ccccc4)CC3)cc2CC1C (stereo not drawn)
7. O=C(CCC(=O)c1ccccc1)NCc1cccc(C(F)(F)F)c1

Output line:
1: 27% [may fluoresce violet] (active); 2: 100% (inactive); 3: 98.9% (inactive); 4: 102% (inactive); 5: 105% (inactive); 6: 105% (inactive); 7: 98.9% (inactive)

###

# test_summary: compounds altering RPL19A-GFP fluorescence, TOR branch – cell-based, S. cerevisiae, multiplex flow cytometry, MLPCN, primary screen (AID 2025);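 further: median channel GFP fluorescence of the barcoded RPL19A-GFP strain; ratio of sample median GFP to plate DMSO average so 100% = DMSO; lower means less RPL19A-GFP as with rapamycin TOR inhibition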
# test_context: S. cerevisiae RPL19A-GFP strain, 3 h, at 10 µM
About 980 (0.3%) of roughly 330,000 compounds were called active.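 How the source made its calls: active means percent response vs DMSO below 50%; inconclusive means fewer than 70 events counted for the yeast strain; inactive means the rest.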 The sample holds actives, similar compounds and a random draw of the others, so the mix is not that of the screen.
Valid outcomes are listed here; reply with one: active, inactive

CC(=O)Nc1ccccc1C(=O)C(=O)Nc1ccc(F)cc1
inactive

Input line: Recorded test outcome, item "CCCCNC(=O)CCNC(=O)c1ccc(C(C)(C)C)cc1"
Output line: active

Input line: Then what about the compound CCOC(=O)C1Nc2ccc(C(F)(F)F)cc2C2C=CCC12 (stereo not drawn) ?
Output line: inactive

Input line: Then what about the compound "O=C(CNC(=O)c1ccccc1)Oc1ccc([N+](=O)[O-])cc1" ?
Output line: inactive

Input line: Then what about the compound "CC1CCN(C(=O)CN(c2ccc(Oc3ccccc3)cc2)S(C)(=O)=O)CC1" ?
Output line: inactive

Input line: Then what about the compound "O=C(CCNC(=O)c1ccc(Br)cc1)NCCCc1ccccc1" ?
Output line: inactive

Input line: Then what about the compound "Cc1ccc(OCC(=O)Nc2ccc(N3CCN(C(=O)c4ccco4)CC3)cc2)c(C)c1" ?
Output line: active

###

# test_summary: compounds altering RPL19A-GFP fluorescence, TOR branch – cell-based, S. cerevisiae, multiplex flow cytometry, MLPCN, primary screen (AID 2025);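 further: median channel GFP fluorescence of the barcoded RPL19A-GFP strain; ratio of sample median GFP to plate DMSO average so 100% = DMSO; lower means less RPL19A-GFP as with rapamycin TOR inhibition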
# test_context: S. cerevisiae RPL19A-GFP strain, 3 h, at 10 µM
The whole screen tested about 330,000 compounds, of which about 980 (0.3%) were called active.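 The calls were made as follows: active = percent response vs DMSO below 50%; inconclusive = fewer than 70 events counted for the yeast strain; inactive = the rest.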 Many of the other results were omitted from the sample, so actives are more common in it than they were.
Valid outcomes are listed here; reply with one: YES (active), NO (inactive)

COc1ccc(CN2CCCC(N3CCc4ccccc4C3)C2)c(O)c1 (centres undefined)
NO
COc1ccccc1CN1CCCC(N2CCN(c3ccc(F)cc3)CC2)C1 (centres undefined)
YES
CC(C)(C)C(=O)Nc1ccc(-c2cn3cccnc3n2)cc1
NO
O=C(COc1cc2oc(=O)c3c(c2cc1Cl)CCC3)NCCCN1CCOCC1
NO
COc1ccc(NC(=O)CN(C)C(=O)CC2CCCCC2)cc1
NO
CC1(C)OC(=O)N2CCc3ccccc3C21C (centres undefined)
NO
O=C(CS(=O)(=O)c1cn(Cc2ccc(Cl)cc2)c2ccccc12)N1CCOCC1
NO
COc1cccc(N=c2oc3c(C)ncc(CO)c3cc2C(N)=O)c1
NO
Nc1c(-c2ccccc2)nnn1Cc1ccccc1
NO
Cc1c(NC(=O)c2c([N+](=O)[O-])cnn2C)c(=O)n(-c2ccccc2)n1C
YES

Input line: Recorded test outcome, item "Cc1cccn2c(=O)c3cc(C#N)c(=O)n(CCCN4CCOCC4)c3nc12"
Output line: YES

Input line: Then what about the compound O=C(CCC(=O)N1CCN(S(=O)(=O)c2ccccc2)CC1)NC1CCCc2ccccc21 (centres undefined) ?
Output line: NO

Input line: Then what about the compound "Cc1cc(OCC(=O)Nc2c(C)n(C)n(-c3ccccc3)c2=O)ccc1[N+](=O)[O-]" ?
Output line: NO

Input line: Then what about the compound CCOc1ncccc1C(=O)OCC(=O)N1c2ccccc2CC1C (centres undefined) ?
Output line: NO

Input line: Then what about the compound "COc1ccccc1CN1CCN(Cc2cc(OC)c(OC)cc2OC)CC1" ?
Output line: NO

Input line: Then what about the compound "O=C(COc1ccc2c(c1)CCC2)N1CCN(c2ccc(F)cc2)CC1" ?
Output line: NO

Input line: Then what about the compound "O=C(c1cccc(Cl)c1)N1CCN(Cc2ccccc2)CC1" ?
Output line: NO

Input line: Then what about the compound OCC(O)CN(c1ccccc1)c1ccccc1 (centres undefined) ?
Output line: NO
